# Tested on: eosinophil peroxidase activity
# protocol: Uterine eosinophil peroxidase (EPO) assay, OVX rat, four day dosing regimen
# cond: Dose 0.1 mg/kg, oral, daily for 4 days, OVX rats; * = significantly different than OVX control
# strict inequality: Uterine EPO (Vmax) < 4 yields TRUE, everything else yields FALSE

molecule	classAssignment
O=C(c1ccc(OCCN2CCCC2=O)cc1)c1c(-c2ccc(O)cc2)sc2cc(O)ccc12	TRUE
O=C(NCCOc1ccc(C(=O)c2c(-c3ccc(O)cc3)sc3cc(O)ccc23)cc1)NC1CCCCC1	TRUE
CC(=O)NCCOc1ccc(C(=O)c2c(-c3ccc(O)cc3)sc3cc(O)ccc23)cc1	TRUE
CC(C#N)Oc1ccc(C(=O)c2c(-c3ccc(O)cc3)sc3cc(O)ccc23)cc1 (stereo not shown)	TRUE
O=C(NCCOc1ccc(C(=O)c2c(-c3ccc(O)cc3)sc3cc(O)ccc23)cc1)c1ccccc1	TRUE
CC(=O)N(CCOc1ccc(C(=O)c2c(-c3ccc(O)cc3)sc3cc(O)ccc23)cc1)C1CCCCC1	FALSE
CCCCN(C)C(=O)COc1ccc(C(=O)c2c(-c3ccc(O)cc3)sc3cc(O)ccc23)cc1	FALSE
O=C(c1ccc(OCCNC(=O)C2CCCCC2)cc1)c1c(-c2ccc(O)cc2)sc2cc(O)ccc12	TRUE
N#CCOc1ccc(C(=O)c2c(-c3ccc(O)cc3)sc3cc(O)ccc23)cc1	TRUE
O=C(c1ccc(OCC(=O)N2CCCCC2)cc1)c1c(-c2ccc(O)cc2)sc2cc(O)ccc12	TRUE
COc1ccc(-c2sc3cc(OC)ccc3c2C(=O)c2ccc(OCC(=O)N3CCCCC3)cc2)cc1	FALSE
CC(C)(C)C(=O)N1CCC(Oc2ccc(C(=O)c3c(-c4ccc(O)cc4)sc4cc(O)ccc34)cc2)CC1	TRUE
CN(C)C(=O)COc1ccc(C(=O)c2c(-c3ccc(O)cc3)sc3cc(O)ccc23)cc1	TRUE
O=C(c1ccc(OCCN2CCCCC2=O)cc1)c1c(-c2ccc(O)cc2)sc2cc(O)ccc12	FALSE
O=C(c1ccc(OCCN2C(=O)CCC2=O)cc1)c1c(-c2ccc(O)cc2)sc2cc(O)ccc12	TRUE

====

# Tested on: uterus
# protocol: Uterine wet weight, post-menopausal (OVX) rat model, four day dosing regimen
# Type: in vivo, female Sprague Dawley rats
# cond: Dose 10 mg/kg, oral, daily for 4 days, OVX rats; * = significantly different than OVX control

molecule	targetDesc	Uterine Weight (% inc. OVX), %
O=C(c1ccc(OCCN2C(=O)CCC2=O)cc1)c1c(-c2ccc(O)cc2)sc2cc(O)ccc12 [Compound 13]	uterus	-4.0
O=C(NCCOc1ccc(C(=O)c2c(-c3ccc(O)cc3)sc3cc(O)ccc23)cc1)NC1CCCCC1 [Compound 20]	uterus	-32.7
COc1ccc(-c2sc3cc(OC)ccc3c2C(=O)c2ccc(OCC(=O)N3CCCCC3)cc2)cc1 [Compound 7]	uterus	8.4
CC(C)(C)C(=O)N1CCC(Oc2ccc(C(=O)c3c(-c4ccc(O)cc4)sc4cc(O)ccc34)cc2)CC1 [Compound 23]	uterus	22.3

====

Entries annotated with measured Uterine Weight (% inc. OVX)
# Test system: uterus
# protocol: Uterine wet weight, post-menopausal (OVX) rat model, four day dosing regimen
# Assay type: in vivo, female Sprague Dawley rats
# cond: Dose 0.1 mg/kg, oral, daily for 4 days, OVX rats; * = significantly different than OVX control
# Experimental: In the examples illustrating the methods, a post-menopausal model was used in which effects of different treatments upon various biological parameters were determined, including serum cholesterol concentration, uterine weight, eosinophil peroxidase activity, MCF-7 cell proliferation, and bone density. Animals were dosed daily for 4 days. […] A blood sample was collected by cardiac puncture.

molecule	Uterine Weight (% inc. OVX) (%)
CN(C)C(=O)COc1ccc(C(=O)c2c(-c3ccc(O)cc3)sc3cc(O)ccc23)cc1 [Compound 12]	-7.7
CC(C)(C)C(=O)N1CCC(Oc2ccc(C(=O)c3c(-c4ccc(O)cc4)sc4cc(O)ccc34)cc2)CC1 [Compound 23]	-4.3
O=C(c1ccc(OCCN2CCCC2=O)cc1)c1c(-c2ccc(O)cc2)sc2cc(O)ccc12 [Compound 6]	-9
N#CCOc1ccc(C(=O)c2c(-c3ccc(O)cc3)sc3cc(O)ccc23)cc1 [Compound 14]	18.8
CC(=O)N(CCOc1ccc(C(=O)c2c(-c3ccc(O)cc3)sc3cc(O)ccc23)cc1)C1CCCCC1 [Compound 19]	7
CC(=O)NCCOc1ccc(C(=O)c2c(-c3ccc(O)cc3)sc3cc(O)ccc23)cc1 [Compound 26]	-17.5
CCCCN(C)C(=O)COc1ccc(C(=O)c2c(-c3ccc(O)cc3)sc3cc(O)ccc23)cc1 [Compound 10]	1.5
O=C(c1ccc(OCCN2C(=O)CCC2=O)cc1)c1c(-c2ccc(O)cc2)sc2cc(O)ccc12 [Compound 13]	22.2
